Task for the reader: assign each of the following molecules its reported selectivity ratio.
- experiment notes: Selectivity factor, ratio of IC50 for cytotoxicity against human MCF-10A cells to IC50 for antiproliferative activity against human MCF-7 cells
- Format: toxicity, cell-based
- test conditions: MCF-10A cells versus MCF-7 cells, read-out: Ratio IC50
Give only the figure.

Enquiry: Could you please provide reported selectivity ratio for `C=C(C)[C@@H]1CC[C@]2(C)CC[C@]3(C)[C@H](CC[C@@H]4[C@@]5(C)CC[C@H](OC(=O)CC[P+](c6ccc(C)cc6)(c6ccc(C)cc6)c6ccc(C)cc6)C(C)(C)[C@@H]5CC[C@]43C)[C@@H]12` ? Thanks!
Return: 1.53

Enquiry: Tell me its selectivity ratio given `C=C(C)[C@@H]1CC[C@]2(C)CC[C@]3(C)[C@H](CC[C@@H]4[C@@]5(C)CC[C@H](OC(=O)CCCC[P+](c6ccc(F)cc6)(c6ccc(F)cc6)c6ccc(F)cc6)C(C)(C)[C@@H]5CC[C@]43C)[C@@H]12` as the entry.
Return: 1.01

====

- experiment notes: Selectivity factor, ratio of IC50 for cytotoxicity against human MRC5 cells to IC50 for antiproliferative activity against human A549 cells
- Type: toxicity, cell-based
- test conditions: MRC5 cells versus A549 cells, read-out: Ratio IC50
Note to self: use True only for selectivity ratio readings below 10; a reading exactly at 10 still gets False.

Enquiry: Is the reported selectivity ratio for `C=C(C)[C@@H]1CC[C@]2(C)CC[C@]3(C)[C@H](CC[C@@H]4[C@@]5(C)CC[C@H](OC(=O)CCC[P+](c6ccc(Cl)cc6)(c6ccc(Cl)cc6)c6ccc(Cl)cc6)C(C)(C)[C@@H]5CC[C@]43C)[C@@H]12` strictly below 10?
Return: False

Enquiry: Strictly below 10 in selectivity ratio? `C=C(C)[C@@H]1CC[C@]2(C)CC[C@]3(C)[C@H](CC[C@@H]4[C@@]5(C)CC[C@H](OC(=O)NCCCC[P+](c6ccc(Cl)cc6)(c6ccc(Cl)cc6)c6ccc(Cl)cc6)C(C)(C)[C@@H]5CC[C@]43C)[C@@H]12`
Return: False

Enquiry: Could you please tell me whether selectivity ratio recorded for `C=C(C)[C@@H]1CC[C@]2(C)CC[C@]3(C)[C@H](CC[C@@H]4[C@@]5(C)CC[C@H](OC(=O)CCCC[P+](c6ccc(OC)cc6)(c6ccc(OC)cc6)c6ccc(OC)cc6)C(C)(C)[C@@H]5CC[C@]43C)[C@@H]12` is less than 10?
Return: True

Enquiry: State whether 10 exceeds selectivity ratio recorded for `C=C(C)[C@@H]1CC[C@]2(C)CC[C@]3(C)[C@H](CC[C@@H]4[C@@]5(C)CC[C@H](OC(=O)CC[P+](C6CCCCC6)(C6CCCCC6)C6CCCCC6)C(C)(C)[C@@H]5CC[C@]43C)[C@@H]12` .
Return: True

Enquiry: Is selectivity ratio of `C=C(C)[C@@H]1CC[C@]2(C)CC[C@]3(C)[C@H](CC[C@@H]4[C@@]5(C)CC[C@H](OC(=O)CCC[P+](c6ccc(C)cc6)(c6ccc(C)cc6)c6ccc(C)cc6)C(C)(C)[C@@H]5CC[C@]43C)[C@@H]12` strictly below 10?
Return: False

====

- experiment notes: Selectivity factor, ratio of IC50 for cytotoxicity against human MRC5 cells to IC50 for antiproliferative activity against human A549 cells
- Format: toxicity, cell-based
- test conditions: MRC5 cells versus A549 cells, read-out: Ratio IC50
Provide the recorded selectivity ratio for the entries that follow.
Respond with the number and no other words.

Enquiry: // fetch selectivity ratio given entry `C=C(C)[C@@H]1CC[C@]2(C)CC[C@]3(C)[C@H](CC[C@@H]4[C@@]5(C)CC[C@H](OC(=O)CCC[P+](CCCCCCCC)(CCCCCCCC)CCCCCCCC)C(C)(C)[C@@H]5CC[C@]43C)[C@@H]12`
Return: 13.2

Enquiry: Identify the reported selectivity ratio for the following entry. `C=C(C)[C@@H]1CC[C@]2(C)CC[C@]3(C)[C@H](CC[C@@H]4[C@@]5(C)CC[C@H](OC(=O)CCCC[P+](CCCCCCCC)(CCCCCCCC)CCCCCCCC)C(C)(C)[C@@H]5CC[C@]43C)[C@@H]12`
Return: 4.56

Enquiry: Specify selectivity ratio for `C=C(C)[C@@H]1CC[C@]2(C)CC[C@]3(C)[C@H](CC[C@@H]4[C@@]5(C)CC[C@H](OC(=O)CC[P+](c6ccc(OC)cc6)(c6ccc(OC)cc6)c6ccc(OC)cc6)C(C)(C)[C@@H]5CC[C@]43C)[C@@H]12` and stop.
Return: 3.85

Enquiry: Kindly indicate its recorded selectivity ratio. Item: `C=C(C)[C@@H]1CC[C@]2(C)CC[C@]3(C)[C@H](CC[C@@H]4[C@@]5(C)CC[C@H](OC(=O)CC[P+](CCCC)(CCCC)CCCC)C(C)(C)[C@@H]5CC[C@]43C)[C@@H]12`
Return: 3.68
